B1: PLAGL1 (parent)
chain: DPNKMAFGCEECGKKYNTMLGYKR

variants of: B1; assay: protein stability index of a GFP-peptide fusion (GPS, HEK-293T) (PSI 1-6); higher = more stable; details: c terminus: a fixed tail appended;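 also: lentivirally expressed fusions sorted by FACS into six bins by GFP to DsRed ratio, PSI derived from sequencing read proportions per bin multiplied by bin number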
reported_metric: protein stability index
Could you keep your reply to the number by itself?

Short answer for `G13L` : protein stability index was 3.01

Short answer for `N17D` : protein stability index was 2.33

Short answer for `G21H` : protein stability index was 2.56

Short answer for `G13N` : protein stability index was 2.12

Short answer for `K14T` : protein stability index was 3.14

Short answer for `N3S` : protein stability index was 2.87

Short answer for `M5N` : protein stability index was 2.48

Short answer for `M19F` : protein stability index was 1.9

Short answer for `E10A` : protein stability index was 1.74

Short answer for `K4C` : protein stability index was 2.45

Short answer for `K23H` : protein stability index was 1.98

Short answer for `N17A` : protein stability index was 2.82

Short answer for `P2N` : protein stability index was 2.12

Short answer for `N17F` : protein stability index was 3.25

Short answer for `M5C` : protein stability index was 3.04

Short answer for `M19C` : protein stability index was 2.57

Short answer for `F7H` : protein stability index was 2.19

Short answer for `C12N` : protein stability index was 4.1

Short answer for `K14S` : protein stability index was 2.39

Short answer for `D1G` : protein stability index was 2.22

Short answer for `C9W` : protein stability index was 3.01

Short answer for `K4N` : protein stability index was 2.55
